Some variants, each annotated with its measured folding stability dG.
B1: EEHEE_rd3_0130 (parent)
chain: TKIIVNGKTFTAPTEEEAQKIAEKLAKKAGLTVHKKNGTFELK

variants of: B1; assay: folding stability dG (cDNA display proteolysis); higher = more stable; settings: PBS, room temperature
The reply should contain only the number, in kcal/mol.

Worked cases, folding stability dG given:
{"columns": ["changes", "folding stability dG, kcal/mol"],
 "data": [
  ["E23A", 0.74],
  ["E17Y", 0.614],
  ["A12S", 0.182],
  ["T14D", 0.286],
  ["A29R", 1.04]
]}

Consider the variant shown here: A26D What is its recorded folding stability dG?
-0.815

Consider the variant shown here: K43V What is its recorded folding stability dG?
1.3

Consider the variant shown here: I21V What is its recorded folding stability dG?
0.46

Consider the variant shown here: E23H What is its recorded folding stability dG?
0.803

Consider the variant shown here: A18F What is its recorded folding stability dG?
-0.368

Consider the variant shown here: L31G What is its recorded folding stability dG?
-0.504

Consider the variant shown here: A26F What is its recorded folding stability dG?
0.197
